Test: protein stability index of a GFP-peptide fusion (GPS, HEK-293T) (PSI 1-6); higher = more stable;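 also: 24-mer peptide tiles fused after GFP, lentivirally expressed, FACS-sorted into six equal bins by GFP/DsRed ratio, decoded by Illumina sequencing, PSI is the read-weighted mean bin number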
Conditions: treatment: MLN4924 1 uM, 8 h; c terminus: a fixed tail appended
Recorded protein stability index, one value per entry.
parameterMeasured: protein stability index

| seqText | result |
| --- | --- |
| QDSPGPREAVSQLRELCRLWLRPE [ZNF24] | 2.9 |
| SEPFLTPYLLGPDKNLTEREVFNE [SLC19A2] | 4.83 |
| SARDCKFTGNFFYNYMMGIEFNPR [DHCR7] | 2.07 |
| LGGEQAEEKAFESVIEPVQESSFR [MIA2] | 5.44 |
| LPLLRQTAGKVLAHFYGVKLEGKV [ESRRA] | 2.11 |
| PLHVAQTRLYLRSHRPNMELCRDA [TEKT4] | 3 |
| DDFHTNDVCSFPNALVTKLLLDCG [FEM1B] | 2.44 |
| DALRNLKCGSGARGGDGEVASAPL [TRADD] | 4.05 |
| DAVGMLGIEEVTYENCLQALADVE [NLN] | 3.9 |
| VLSSWSRAFVSIQEEMAEDPLTYK [RHOBTB2] | 3.17 |
| CGTPNYLSPEVLNKQGHGCESDIW [PLK2] | 2.83 |
| MCKEHEDEKINIYCLTCEVPTCSM [TRIM63] | 3.27 |
| TIEERVNILFDFVKKKKEEGVIDS [EIF5] | 3.39 |
| ELQREWLGNREALIQFLEQVHQGI [CPN1] | 2.97 |
| MAKFVIRPATAADCSDILRLIKEL [SAT1] | 2.22 |
| TLEGHQRAIMAHMTVEEIYKDRQK [FLOT1] | 4.7 |
| CEENEQSLPPPAGLNSSWVELPMN [BNIP3L] | 4.41 |
| PQGAVLVQREKDLPNYNWNSFGLR [KISS1] | 3.13 |
| QDMSQVSGKESPPVSDTPDEGDEP [IKZF1] | 5.62 |
| WAVQGQNVLHGYPKDIYSSFGFPR [MMP1] | 2.15 |
| ELQGDFSVPDVPKSMAWCENSICV [VPS39] | 2.67 |
| LPSWADICTNLCEALQNFFSLACS [M1AP] | 2.9 |
| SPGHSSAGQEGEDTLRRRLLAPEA [TOR1AIP2] | 4.51 |
| LHYFPFFLMGRVLYFHHYFPAMLF [POMT2] | 2.58 |
| MANIHQENEEMEQPMQNGEEDRPL [BEX3] | 5.71 |
| ASTSLPTKPTQGASSASEPQGLFV [CLPTM1] | 4.29 |
| AIHQDPPDECGKTEFTRFLCSSPL [ATE1] | 3.82 |

---

Recorded protein stability index, one value per entry.
Assay: protein stability index of a GFP-peptide fusion (GPS, HEK-293T) (PSI 1-6); higher = more stable
Conditions: treatment: MLN4924 1 uM, 8 h; c terminus: a fixed tail appended
parameterMeasured: protein stability index

| seqText | parameterMeasured | result |
| --- | --- | --- |
| IEITFSYWDGSGHRRTVKMRKGNT [FAM50A] | protein stability index | 2.19 |
| TSALFWEQHDLVYGDWTSGENSDG [CLPTM1] | protein stability index | 4.34 |
| NGVLEPLYLCPNGARCATWFQDPT [SLC25A39] | protein stability index | 2.47 |
| MEVLAAETTSQQERLQAIAEKRKR [PALM] | protein stability index | 5.23 |
| NHRLISEILSESVVPDVRSVVTTA [SMARCE1] | protein stability index | 3.17 |
| ISWAFTDRPDLSLTVLPKLQARER [C2CD2L] | protein stability index | 2.71 |
| SAGVGRTGVFITLSIVLERMRYEG [PTPRD] | protein stability index | 2.34 |
| RKVCVGGKRRKDEISVDSLDFSKK [PPP2R2B] | protein stability index | 4.31 |
| NLLRDDRVLQNLLTIEERYLPQCS [CCND2] | protein stability index | 2.58 |
| NNFSPLHLAVDKNTTCVGRYPVCK [FEM1C] | protein stability index | 3.52 |
| SQIQYMNTVVSTYVTTNVSLIPPR [TMEM106C] | protein stability index | 2.07 |
| VALLTGKFSNIVDKFVIVDCRYPY [CDC25B] | protein stability index | 2.59 |
| HVTCVDQSEHTMVLRCQLSAEEVR [C2CD2L] | protein stability index | 3.82 |

---

Assay: protein stability index of a GFP-peptide fusion (GPS, HEK-293T) (PSI 1-6); higher = more stable
Conditions: treatment: MLN4924 1 uM, 8 h; c terminus: a fixed tail appended

| seqText | protein stability index |
| --- | --- |
| RDLASVPPELTASRQSFRMAMGNP [DVL3] | 3.81 |
| TYSGKAADVWSLGVMLYTLLVGRY [TRIB1] | 2.21 |
| SSSFTSIASEWFLIANRSYKVSAA [SLC22A15] | 2.42 |
| PGMASHPPIPILELADHIERLKAN [PTPRD] | 3.81 |
| NPTEPATIIFTAAREGRETLKCLS [TOR1AIP2] | 3.69 |
| ENEKLHQRVEQLTRDLAGLRQFFK [CEBPD] | 2.55 |
| EEEGFGSSSPVKSPAAPYFLGSSF [WEE1] | 3.77 |
| IKQLRSGGTPIRGALQIEQSEESD [PTPRD] | 5.15 |
| SKIPHILKEMYDADLLEEEVIISW [EIF5] | 2.4 |
| PCKLEKMRILAHGELVLATAISSF [TLE6] | 2.45 |
| SKYENYFSASERLSLKRELSWYRG [HESX1] | 2.31 |
| CNSHMPYGYAAQARARERERLAHS [KCNA4] | 3.13 |
| ESDTDIYETVAAATSESTTVEPGK [DRICH1] | 5.6 |
| KRQVPREQAQAYAERLGVTFFEVS [RAB40A] | 3.21 |
| LSKFDLPEEPSAEDSINNSLVQLQ [MYBL2] | 4.85 |
| ADSGRYRASPTRTAPLPMPEGPEP [ELOA2] | 4.96 |
| VLKTRMALRKTGQYSGMLDCARRI [SLC25A25] | 2.78 |
| RLLQASGGGLTGVSGSHFVGVDGV [PCDHGA10] | 3.01 |
| SGYDGTFLFQKPGDKYEHHSYMGM [POMT2] | 2.5 |
| TQSVMGFDPLPPSDTIYSYVRPER [TCF25] | 3.73 |
| QYYDDEKKTWKILTIMPYNSAHHC [KLHL14] | 2.59 |
| VTFAAMQAQQGRSSLVWLFSQLYL [MCOLN1] | 2.75 |
| FTEYQASAFGNVKLVVHDCPVWDI [RHOBTB3] | 2.46 |
| INSGYETRRKKGKKDKDISKEKDT [KMT2E] | 4.78 |
| EDAEGEEEEEEEEEEEDDLSELPP [FKBP8] | 5.56 |
| ASSWKKQVSHDFLETRFKIQQLLE [FBXO34] | 2.71 |
| HEKIGFPAARRCHSCVQIKNDVFI [KLHDC10] | 1.73 |
| TQVKVVKFSYMWTINNFSFCREEM [SPOPL] | 2.77 |
| FLLFLLTGIVSVAFLLLPLPDELG [MOSPD3] | 2.89 |
| AFLGDAEIIELLILSGARVNAKDN [ANKRD44] | 2.32 |
| YLLKFLLVGDSDVGKGEILESLQD [RAB40C] | 2.45 |
| LFAIANGFSPSYEFFAVTRFLVGM [SLC22A15] | 2.57 |
| NGITQGDKLRALKSQRQPRTSPSC [CDC14A] | 4.14 |
| TKRSTLIISGVSKVPIAQDELALS [C2CD2L] | 3.14 |
| ARGTGSGEDSSTSSSTPLEDEEPQ [RTN2] | 5.62 |
| KGVDFQKFCMNGAALCALGKDCFL [ETS1] | 2.09 |
| PTLGGGFHVNLGKESRAQTLQNGR [BRF1] | 4.14 |
| FLKQGDSADETTAHKTEEENSDSD [CMTM3] | 5.58 |
| EQRDQLERTKSRLVNTSENLSKSR [VTI1B] | 5.01 |
| YQLGEEALLKFREDEGFVREEEDR [KCNA4] | 4.85 |
| SVTGLDPEARYLFLLDVIPVDGAR [TBX6] | 2 |
| SKRLAVPCKLEKMRILAHGELVLA [TLE6] | 2.35 |
| QALRGLEGYTWRVAQLEDRRSTTD [ZSWIM9] | 3.75 |
| QEYEALLNIKVKLEAEIATYRRLL [KRT18] | 2.82 |
| LLFSDKNVNSNLITWNRVVLLHGP [TRIP13] | 2.28 |
| LDPHFVPTELWPQEAVPLGLGLED [TEX19] | 4.91 |
| PNSTFPIDKSMTVVLTFITPMLNP [OR4A15] | 2.97 |
| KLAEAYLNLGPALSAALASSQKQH [C8orf76] | 2.82 |
| THGVGLVLRVEQQPHLPLLSTLAG [SCNN1D] | 2.17 |
| YIRCQKEVGKSFERHKLKRQDADA [SMG5] | 3.43 |
| PPFWDEDQHRLYKQIKAGAYDFPS [CAMK2A] | 3.54 |
| VVIFQREPESKNAPHSQGEYDVYS [PPP2R2C] | 2.85 |
| TLYRNRSNLETIFRIIDSDHSGFI [PPEF2] | 1.99 |
